The molecules listed here are annotated with their pKd.
# SYSTEM NAME: Cdk2(2-298) (Homo sapiens, UniProt P24941)
# Construct: Biotinylated N-terminal avi-tagged Cdk2(2-298) or Cdk1(1-297) was immobilized
# EXPERIMENT SUMMARY: Surface Plasmon Resonance (SPR) compound interaction, Biacore 8K
# ASSAY SETUP: single-cycle kinetics (SCK, "S"), dissociation 1800 sec, read-out: Activity rating (KD)
pKd: −log10 of the molar value.

STRUCTURE SMILES: N[C@H]1CC[C@H](Nc2nccc(-c3cccnc3Sc3ccc(NS(=O)(=O)c4ccccc4)cc3F)n2)CC1
pKd: 7.00 to 7.96

STRUCTURE SMILES: CN1CC(Nc2nccc(-c3cnccc3Oc3ccc(NS(=O)(=O)c4ccccc4Cl)cc3F)n2)C1
pKd: 7.00 to 7.96

STRUCTURE SMILES: N[C@H]1CC[C@H](Nc2nccc(-c3cnccc3Oc3ccc(NS(=O)(=O)c4ccccc4)c(Cl)c3F)n2)CC1
pKd: 7.00 to 7.96

STRUCTURE SMILES: O=S(=O)(Nc1ccc(Oc2ccncc2-c2ccnc(NCCN3CCC3)n2)c(F)c1)c1ccccc1Cl
pKd: 6.00 to 7.00

STRUCTURE SMILES: COc1ccc(Br)cc1S(=O)(=O)Nc1ccc(Oc2ccncc2-c2ccnc(N[C@H]3CC[C@H](N)CC3)n2)c(F)c1
pKd: 6.00 to 7.00

STRUCTURE SMILES: CC(C)(C)c1ccc(-c2ccnc(N[C@H]3CC[C@H](N)CC3)n2)c(Oc2ccc(NS(=O)(=O)c3ccccc3Cl)cc2F)c1
pKd: 7.00 to 7.96

STRUCTURE SMILES: CN(C)[C@H]1CC[C@H](Nc2nccc(-c3cnccc3Oc3ccc(NS(=O)(=O)c4ccccc4Cl)cc3F)n2)CC1
pKd: 7.00 to 7.96

---

The molecules listed here are annotated with their Kd.
# SYSTEM NAME: Cdk2(2-298) (Homo sapiens, UniProt P24941)
# Construct: Biotinylated N-terminal avi-tagged Cdk2(2-298) or Cdk1(1-297) was immobilized
# EXPERIMENT SUMMARY: Surface Plasmon Resonance (SPR) compound interaction, Biacore 8K
# ASSAY SETUP: single-cycle kinetics (SCK, "S"), dissociation 1800 sec, read-out: Activity rating (KD)
ASSAY READOUT: Kd

MOLECULE: O=S(=O)(Nc1ccc(Oc2ccncc2-c2ccnc(NCCc3ncc[nH]3)n2)c(F)c1)c1ccccc1Cl [Compound 96]
ASSAY READOUT: Kd
RESULT: 0.1 to 1 µM
--
MOLECULE: COCCOCCNc1nccc(-c2cnccc2Oc2ccc(NS(=O)(=O)c3ccccc3Cl)cc2F)n1 [Compound 91]
ASSAY READOUT: Kd
RESULT: 0.1 to 1 µM
--
MOLECULE: Cc1ccc(C#N)cc1S(=O)(=O)Nc1ccc(Oc2ccncc2-c2ccnc(N[C@H]3CC[C@H](N)CC3)n2)c(F)c1 [Compound 35]
ASSAY READOUT: Kd
RESULT: 0.011 to 0.1 µM
--
MOLECULE: Cc1ccccc1S(=O)(=O)Nc1ccc(Oc2ccncc2-c2ccnc(N[C@H]3CC[C@H](N)CC3)n2)c(F)c1 [Compound 54]
ASSAY READOUT: Kd
RESULT: 0.011 to 0.1 µM
--
MOLECULE: O=S(=O)(Nc1ccc(Oc2ccccc2-c2ccnc(N[C@H]3CCCNC3)n2)c(F)c1)c1ccccc1Cl [Compound 5]
ASSAY READOUT: Kd
RESULT: ≤ 0.01 µM
--
MOLECULE: N[C@H]1CC[C@H](Nc2nccc(-c3cnccc3Oc3ccc(NS(=O)(=O)c4ccccc4-c4ccccc4)cc3F)n2)CC1 [Compound 72]
ASSAY READOUT: Kd
RESULT: 0.011 to 0.1 µM
--
MOLECULE: N[C@H]1CC[C@H](Nc2nccc(-c3cnccc3Oc3ccc(NS(=O)(=O)c4ccccc4)c(Br)c3)n2)CC1 [Compound 62]
ASSAY READOUT: Kd
RESULT: 0.1 to 1 µM
--
MOLECULE: O=S(=O)(Nc1ccc(Oc2ccncc2-c2ccnc(NCCN3CCCC3)n2)c(F)c1)c1ccccc1Cl [Compound 90]
ASSAY READOUT: Kd
RESULT: 0.1 to 1 µM
--
MOLECULE: N[C@H]1CC[C@H](Nc2nccc(-c3cnccc3Oc3cc(Cl)c(NS(=O)(=O)c4ccccc4)cc3F)n2)CC1 [Compound 48]
ASSAY READOUT: Kd
RESULT: 0.011 to 0.1 µM
--
MOLECULE: N[C@H]1CC[C@H](Nc2nccc(-c3cnccc3Oc3ccc(NS(=O)(=O)c4ccc5c(c4)OCO5)cc3F)n2)CC1 [Compound 41]
ASSAY READOUT: Kd
RESULT: 0.1 to 1 µM
--
MOLECULE: N[C@H]1CC[C@H](Nc2nccc(-c3cc(C(F)(F)F)ccc3Oc3ccc(NS(=O)(=O)c4ccccc4Cl)cc3F)n2)CC1 [Compound 8]
ASSAY READOUT: Kd
RESULT: 0.011 to 0.1 µM
--
MOLECULE: N[C@H]1CC[C@H](Nc2nccc(-c3ccncc3Oc3ccc(NS(=O)(=O)c4ccccc4Cl)cc3F)n2)CC1 [Compound 131]
ASSAY READOUT: Kd
RESULT: 0.011 to 0.1 µM
--
MOLECULE: N[C@H]1CC[C@H](Nc2nccc(-c3cnccc3Oc3ccc(NS(=O)(=O)C4CCC4)cc3F)n2)CC1 [Compound 39]
ASSAY READOUT: Kd
RESULT: 1 to 5 µM
--
MOLECULE: N[C@H]1CC[C@H](Nc2nccc(-c3cnccc3Oc3ccc(NS(=O)(=O)c4ccc(CCO)cc4F)c(F)c3)n2)CC1 [Compound 84]
ASSAY READOUT: Kd
RESULT: 0.1 to 1 µM
